- Tested on: Peritoneal macrophage
- EXPERIMENT_DESCRIPTION: Cytotoxicity against BALB/c mouse peritoneal macrophages after 48 hrs by MTT assay
- Format: cell-based
EXPERIMENTAL_ENDPOINT: EC50 (µM)
Could you give me the number in µM? Just the number is fine.

INSERT INTO measurements (molecule, system_tested, display_unit, endpoint_result) VALUES
  ('C=CCc1ccc(OC(=O)CCC)c(OC)c1', 'Peritoneal macrophage', 'µM', 191);

Hello, I am looking for reported EC50 with Peritoneal macrophage for "C=CCc1ccc(OC(=O)CCCCCCCC)c(OC)c1" . Could you help?
343

Hello, I am looking for reported EC50 with Peritoneal macrophage for "C=CCc1ccc(OC(=O)CC)c(OC)c1" . Could you help?
429

Hello, I am looking for reported EC50 with Peritoneal macrophage for "C=CCc1ccc(OC(=O)C2CCNCC2)c(OC)c1" . Could you help?
307

Hello, I am looking for reported EC50 with Peritoneal macrophage for "C=CCc1ccc(OCCCCCCCCCCCC)c(OC)c1" . Could you help?
292

Hello, I am looking for reported EC50 with Peritoneal macrophage for "C=CCc1ccc(OC(=O)CCCCCCCCCCCCCCCCC)c(OC)c1" . Could you help?
346

Hello, I am looking for reported EC50 with Peritoneal macrophage for "C=CCc1ccc(OC(=O)[C@@H](N)Cc2c[nH]c3ccccc23)c(OC)c1" . Could you help?
471

Hello, I am looking for reported EC50 with Peritoneal macrophage for "C=CCc1ccc(OC(=O)CCCCCCCCCCC)c(OC)c1" . Could you help?
498

Hello, I am looking for reported EC50 with Peritoneal macrophage for "C=CCc1ccc(OC(=O)c2c[nH]c3ccccc23)c(OC)c1" . Could you help?
496
